- System: Bloodstream T. brucei parasites (T. b. brucei)
- assayProcedure: Antitrypanosomal activity, ATPlite cell viability assay
- Assay type: cell-based
- reportedConditions: Trypanosoma brucei; 48 h incubation, ATPlite cell viability; fitted beyond tested range (max 33.3 µM); read-out: Antitrypanosomal IC50 (48 h)
readoutType: pIC50
When answering, recall that pIC50 equals minus log10 of the concentration in mol/L, and write that number alone.

Asked: Lab note: need pIC50 with Bloodstream T. brucei parasites (T. b. brucei) for entry "N#C[C@H](CCc1ccccc1)NC(=O)Cn1ccc2ccccc21" , please look it up.
Given back: 3.55

* * *

- measuredTarget: recombinant FP-2 (falcipain-2) (Plasmodium falciparum, UniProt Q8I6U4)
- Construct: recombinant FP-2, which was expressed and purified as previously reported
- Sequence (Q8I6U4 244-484): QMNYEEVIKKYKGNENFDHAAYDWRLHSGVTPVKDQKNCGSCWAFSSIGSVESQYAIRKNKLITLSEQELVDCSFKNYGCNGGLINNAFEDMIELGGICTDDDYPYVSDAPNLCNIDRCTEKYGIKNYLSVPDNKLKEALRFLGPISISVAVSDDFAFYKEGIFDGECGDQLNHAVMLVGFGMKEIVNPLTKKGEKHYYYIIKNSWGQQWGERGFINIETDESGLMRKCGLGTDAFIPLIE
- assayProcedure: FP-2 inhibition assay, fluorogenic substrate Cbz-Leu-Arg-AMC
- reportedConditions: 30 nM FP-2, Cbz-Leu-Arg-AMC 25 µM, pH 5.5
pIC50: −log10 of the molar value.
readoutType: pIC50

Asked: Name the reported pIC50 value associated with the compound Cc1cn(CC(=O)NC2(C#N)CC2)c2ccccc12 [7a]
Given back: < 4.30

Asked: Name the reported pIC50 value associated with the compound CC(C)C[C@H](NC(=O)[C@H]1O[C@@H]1C(=O)O)C(=O)NCCCCN=C(N)N [E-64, reference compound]
Given back: 7.29

Asked: Name the reported pIC50 value associated with the compound Cc1cc2ccccc2n1CC(=O)NC1(C#N)CC1 [6a]
Given back: < 4.30

Asked: Name the reported pIC50 value associated with the compound N#CC1(NC(=O)CCn2ccc3ccccc32)CC1 [5b]
Given back: < 4.30

Asked: Name the reported pIC50 value associated with the compound N#CC1(NC(=O)Cn2ccc3ccccc32)CC1 [5a]
Given back: < 4.30

Others:
Asked: Name the reported pIC50 value associated with the compound N#C[C@H](CCc1ccccc1)NC(=O)CCn1ccc2ccccc21 [1b]
Given back: < 4.30

Asked: Name the reported pIC50 value associated with the compound N#C[C@H](CCc1ccccc1)NC(=O)Cn1ccc2ccccc21 [1a]
Given back: < 4.30

Asked: Name the reported pIC50 value associated with the compound Cc1cn(CC(=O)N[C@H](C#N)CCc2ccccc2)c2ccccc12 [3a]
Given back: < 4.30

Asked: Name the reported pIC50 value associated with the compound Cc1cc2ccccc2n1CCC(=O)N[C@H](C#N)CCc1ccccc1 [2b]
Given back: 4.39

Asked: Name the reported pIC50 value associated with the compound Cc1cc2ccccc2n1CC(=O)N[C@H](C#N)CCc1ccccc1 [2a]
Given back: < 4.30
